The reported numbers originate from ChEMBL document CHEMBL3804756.

Consider the following compounds; for each one, report its Intrinsic activity.
# target-under-test: Histamine H4 receptor (Mus musculus) (UniProt Q91ZY2)
# Sequence (whole entry): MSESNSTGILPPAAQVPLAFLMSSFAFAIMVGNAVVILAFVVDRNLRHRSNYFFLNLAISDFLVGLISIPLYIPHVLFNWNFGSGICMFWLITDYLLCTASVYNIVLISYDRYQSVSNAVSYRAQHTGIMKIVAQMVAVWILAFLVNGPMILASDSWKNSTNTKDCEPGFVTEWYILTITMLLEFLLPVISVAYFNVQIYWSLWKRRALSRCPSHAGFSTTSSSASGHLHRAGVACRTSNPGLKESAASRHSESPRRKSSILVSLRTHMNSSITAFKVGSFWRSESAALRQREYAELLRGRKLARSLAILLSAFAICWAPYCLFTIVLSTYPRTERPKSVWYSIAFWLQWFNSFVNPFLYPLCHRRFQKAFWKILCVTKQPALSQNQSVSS
# assay-notes: Intrinsic activity at mouse SF-His6-tagged histamine H4 receptor expressed in HEK293 cells assessed as inhibition of forskolin-stimulated response incubated for 5 hrs by luciferase reporter gene assay relative to histamine
# Format: cell-based

Requested field: Intrinsic activity. Item: CN/C(=N\C#N)NC[C@@H]1CC[C@@H](c2c[nH]cn2)C1
0.96

Requested field: Intrinsic activity. Item: CN/C(=N\C#N)NC[C@H]1CC[C@H](c2c[nH]cn2)C1
0.96

Requested field: Intrinsic activity. Item: N#C/N=C(/NCCSc1ccccc1)NC[C@H]1CC[C@H](c2c[nH]cn2)C1
0.67

Requested field: Intrinsic activity. Item: N#C/N=C(/NCCSc1ccccc1)NC[C@@H]1CC[C@@H](c2c[nH]cn2)C1
0.29
